# System: B. subtilis 168;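 also: OD595 on entry to stationary phase over no-drug wells; at most 1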
# assay details: fitness (endpoint OD595 vs no drug) (fraction); higher = more growth
# conditions: first compound 37.5 µg/mL; partner 2.5 µg/mL; main component drawn
measured quantity: fitness
The reply should be a number, written without any unit.

INSERT INTO assay_data (compound, assayed_target, measured_quantity, meas_value) VALUES
  ('CC[C@H](C)[C@H](N)C1=N[C@H](C(=O)N[C@@H](CC(C)C)C(=O)N[C@H](CCC(=O)O)C(=O)N[C@H](C(=O)N[C@H]2CCCCNC(=O)[C@H](CC(N)=O)NC(=O)[C@@H](CC(=O)O)NC(=O)[C@H](Cc3cnc[nH]3)NC(=O)[C@@H](Cc3ccccc3)NC(=O)[C@H]([C@@H](C)CC)NC(=O)[C@@H](CCCN)NC2=O)[C@@H](C)CC)CS1 [Bacitracin] + COc1cccc2c1C(=O)c1c(O)c3c(c(O)c1C2=O)C[C@@](O)(C(=O)CO)C[C@@H]3O[C@H]1C[C@H](N)[C@H](O)[C@H](C)O1 [Doxorubicin]', 'B. subtilis 168', 'fitness', 0.686),
  ('CC[C@H](C)[C@H](N)C1=N[C@H](C(=O)N[C@@H](CC(C)C)C(=O)N[C@H](CCC(=O)O)C(=O)N[C@H](C(=O)N[C@H]2CCCCNC(=O)[C@H](CC(N)=O)NC(=O)[C@@H](CC(=O)O)NC(=O)[C@H](Cc3cnc[nH]3)NC(=O)[C@@H](Cc3ccccc3)NC(=O)[C@H]([C@@H](C)CC)NC(=O)[C@@H](CCCN)NC2=O)[C@@H](C)CC)CS1 [Bacitracin] + C[n+]1ccc(-c2cc[n+](C)cc2)cc1 [Paraquat]', 'B. subtilis 168', 'fitness', 0.886);

Continue with the next compound.
Returns the measured fitness for the input compound. Input: CC[C@H](C)[C@H](N)C1=N[C@H](C(=O)N[C@@H](CC(C)C)C(=O)N[C@H](CCC(=O)O)C(=O)N[C@H](C(=O)N[C@H]2CCCCNC(=O)[C@H](CC(N)=O)NC(=O)[C@@H](CC(=O)O)NC(=O)[C@H](Cc3cnc[nH]3)NC(=O)[C@@H](Cc3ccccc3)NC(=O)[C@H]([C@@H](C)CC)NC(=O)[C@@H](CCCN)NC2=O)[C@@H](C)CC)CS1 [Bacitracin] + CN1C2=CC=CC=C2N=C3C1=CC=CC3=O [Pyocyanin] 0.839

====

# System: S. aureus DSM 20231;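 also: first quartile when negative (synergy) and third quartile when positive (antagonism)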
# assay details: Bliss interaction score (quartile over a dose matrix) (fitness difference); higher = more antagonism (negative = synergy)
# conditions: main component drawn
measured quantity: Bliss interaction score
The reply should be a number, written without any unit.

INSERT INTO assay_data (compound, assayed_target, meas_value) VALUES
  ('CC[C@H](C)[C@H](N)C1=N[C@H](C(=O)N[C@@H](CC(C)C)C(=O)N[C@H](CCC(=O)O)C(=O)N[C@H](C(=O)N[C@H]2CCCCNC(=O)[C@H](CC(N)=O)NC(=O)[C@@H](CC(=O)O)NC(=O)[C@H](Cc3cnc[nH]3)NC(=O)[C@@H](Cc3ccccc3)NC(=O)[C@H]([C@@H](C)CC)NC(=O)[C@@H](CCCN)NC2=O)[C@@H](C)CC)CS1 [Bacitracin] + C/C(=C\C(=O)OCCCCCCCCC(=O)O)C[C@@H]1OC[C@H](C[C@@H]2O[C@H]2[C@@H](C)[C@H](C)O)[C@@H](O)[C@H]1O [Pseudomonic acid]', 'S. aureus DSM 20231', 0.0189),
  ('CC[C@H](C)[C@H](N)C1=N[C@H](C(=O)N[C@@H](CC(C)C)C(=O)N[C@H](CCC(=O)O)C(=O)N[C@H](C(=O)N[C@H]2CCCCNC(=O)[C@H](CC(N)=O)NC(=O)[C@@H](CC(=O)O)NC(=O)[C@H](Cc3cnc[nH]3)NC(=O)[C@@H](Cc3ccccc3)NC(=O)[C@H]([C@@H](C)CC)NC(=O)[C@@H](CCCN)NC2=O)[C@@H](C)CC)CS1 [Bacitracin] + C[C@@H]1O[C@@H]1P(=O)(O)O [Fosfomycin]', 'S. aureus DSM 20231', 0.109),
  ('CC[C@H](C)[C@H](N)C1=N[C@H](C(=O)N[C@@H](CC(C)C)C(=O)N[C@H](CCC(=O)O)C(=O)N[C@H](C(=O)N[C@H]2CCCCNC(=O)[C@H](CC(N)=O)NC(=O)[C@@H](CC(=O)O)NC(=O)[C@H](Cc3cnc[nH]3)NC(=O)[C@@H](Cc3ccccc3)NC(=O)[C@H]([C@@H](C)CC)NC(=O)[C@@H](CCCN)NC2=O)[C@@H](C)CC)CS1 [Bacitracin] + Cn1nnc(-c2ccc(-c3ccc(N4C[C@H](CO)OC4=O)cc3F)cn2)n1 [Tedizolid]', 'S. aureus DSM 20231', -0.0663);

What Bliss interaction score appears in the records for this compound with S. aureus DSM 20231? CC[C@H](C)[C@H](N)C1=N[C@H](C(=O)N[C@@H](CC(C)C)C(=O)N[C@H](CCC(=O)O)C(=O)N[C@H](C(=O)N[C@H]2CCCCNC(=O)[C@H](CC(N)=O)NC(=O)[C@@H](CC(=O)O)NC(=O)[C@H](Cc3cnc[nH]3)NC(=O)[C@@H](Cc3ccccc3)NC(=O)[C@H]([C@@H](C)CC)NC(=O)[C@@H](CCCN)NC2=O)[C@@H](C)CC)CS1 [Bacitracin] + Cc1ncc([N+](=O)[O-])n1CCO [Metronidazole] 0.0734

What Bliss interaction score appears in the records for this compound with S. aureus DSM 20231? CC[C@H](C)[C@H](N)C1=N[C@H](C(=O)N[C@@H](CC(C)C)C(=O)N[C@H](CCC(=O)O)C(=O)N[C@H](C(=O)N[C@H]2CCCCNC(=O)[C@H](CC(N)=O)NC(=O)[C@@H](CC(=O)O)NC(=O)[C@H](Cc3cnc[nH]3)NC(=O)[C@@H](Cc3ccccc3)NC(=O)[C@H]([C@@H](C)CC)NC(=O)[C@@H](CCCN)NC2=O)[C@@H](C)CC)CS1 [Bacitracin] + CN[C@@H]1[C@H](O)[C@H](NC)[C@H]2O[C@@]3(O)C(=O)C[C@@H](C)O[C@H]3O[C@@H]2[C@H]1O [Spectinomycin] 0.0546
